# Substrate: pNPB
# PROCEDURE TEXT: Proxy for plastic degradation [p-nitrophenol (pNP) release]
# CONDITION: pH 7.4
RECORDED ENDPOINT: Proxy for plastic degradation (U/mL)
Express it in U/mL; write the number only.

unnamed (protein) MFRFHIVSALLTLFIAVPSQAHDVGQREIKISGAEPGRNLEVSVWYPAAIDGKATLIGDNIIFKGAPAVIDATPEKGSFPLLVMSHGSGGRAQGMAWLATELVKAGIIVAAPNHPGTTSGDSTPQDTPKIWQRTGDLSAVIDTMTTDPAWSGIIDKNKISVLGFSLGGAAAMEIAGARANLEAYARYCDTYGKWDCAWYAGGIGYRDDKQIKVDKVDLRSVDKSRFEQSNLDRRIASAIMIDPGLAQAYDAQSLASISIPMSFINLGEVETIPTGVVADKLASITPQGTYVTVAGATHWSFLPECKKGAADRLKSAGEVDPICSDDARRPRADIHADITKLVLKALQSMPKT; 110
unnamed (protein) MFRFHIVSALLTLFIAVPSQAHDVGQREIKISGAEPGRNLEVSVWYPAAIDGKATLIGDNIIFKGAPAVIDATPEKGSFPLLVMSHGSGGRAQGMAWLATELVKAGIIVAAPNHPGTTSGDSTPQDTPKIWQRTGDLSAVIDTMTTDPAWSGIIDKNKISVLGFSLGGAAAMEIAGARANLEAYARYCDTYGKWDCAWYAGGIGYRDDKQIKVDKVDLRSVDKSRFEQSNLDRRIASAIMIDPGLAQAYDAQSLASISIPMSFINLGEVETIPTGVVADKLASITPQGTYVTVDGATHFSFLPECKKGAADRLKSAGEVDPICSDDARRPRADIHADITKLVLKALQSMPKT; 100
unnamed (protein) MLHYKTYTISDDHPWVIFIHGAGGSLSHWYRQLRPFRKKYNVLLVDLRGHGGSYDAEQSLKQPLNAYTFDVVAKDVIEVMDHLGIEKGHMVGLSLGTIVIQAMFEHYPDRIASVVLGGAIVKFNVRSTMLIRLGSLVQNFVPYMWLYKLFAWILLPKKRHKKSRMMFVRDAANLCQREFIRWFKMTENINPLLNQFTSIQTNVPILYIMGDEDYMFLEAVERTAKHQPTANVEIVADSGHVVNVDQPDQFNALSMNFIDDQIQARSLQMS; 4

Input: Which Proxy for plastic degradation is listed for unnamed (protein) MFRFHIVSALLTLFIAVPSQAHDVGQREIKISGAEPGRNLEVSVWYPAAIDGKATLIGDNIIFKGAPAVIDATPEKGSFPLLVMSHGSGGRAQGMAWLATELVKAGIIVAAPNHPGTTSGDSTPQDTPKIWQRTGDLSAVIDTMTTDPAWSGIIDKNKISVLGFSLGGAAAMEIAGARANLEAYARYADTYGKWDCAWYAGGIGYRDDKQIKVDKVDLRSVDKSRFEQSNLDRRIASAIMIDPGLAQAYDAQSLASISIPMSFINLGEVETIPTGVVADKLASITPQGTYVTVAGATHFSFLPECKKGAADRLKSAGEVDPICSDDARRPRADIHADITKLVLKALQSMPKT ?
Output: 10
